Biological target: D39G/R84G mutant EAG1 channels (Mus musculus, UniProt Q60603, D39G/R84G)
Sequence (Q60603 whole entry D39G/R84G): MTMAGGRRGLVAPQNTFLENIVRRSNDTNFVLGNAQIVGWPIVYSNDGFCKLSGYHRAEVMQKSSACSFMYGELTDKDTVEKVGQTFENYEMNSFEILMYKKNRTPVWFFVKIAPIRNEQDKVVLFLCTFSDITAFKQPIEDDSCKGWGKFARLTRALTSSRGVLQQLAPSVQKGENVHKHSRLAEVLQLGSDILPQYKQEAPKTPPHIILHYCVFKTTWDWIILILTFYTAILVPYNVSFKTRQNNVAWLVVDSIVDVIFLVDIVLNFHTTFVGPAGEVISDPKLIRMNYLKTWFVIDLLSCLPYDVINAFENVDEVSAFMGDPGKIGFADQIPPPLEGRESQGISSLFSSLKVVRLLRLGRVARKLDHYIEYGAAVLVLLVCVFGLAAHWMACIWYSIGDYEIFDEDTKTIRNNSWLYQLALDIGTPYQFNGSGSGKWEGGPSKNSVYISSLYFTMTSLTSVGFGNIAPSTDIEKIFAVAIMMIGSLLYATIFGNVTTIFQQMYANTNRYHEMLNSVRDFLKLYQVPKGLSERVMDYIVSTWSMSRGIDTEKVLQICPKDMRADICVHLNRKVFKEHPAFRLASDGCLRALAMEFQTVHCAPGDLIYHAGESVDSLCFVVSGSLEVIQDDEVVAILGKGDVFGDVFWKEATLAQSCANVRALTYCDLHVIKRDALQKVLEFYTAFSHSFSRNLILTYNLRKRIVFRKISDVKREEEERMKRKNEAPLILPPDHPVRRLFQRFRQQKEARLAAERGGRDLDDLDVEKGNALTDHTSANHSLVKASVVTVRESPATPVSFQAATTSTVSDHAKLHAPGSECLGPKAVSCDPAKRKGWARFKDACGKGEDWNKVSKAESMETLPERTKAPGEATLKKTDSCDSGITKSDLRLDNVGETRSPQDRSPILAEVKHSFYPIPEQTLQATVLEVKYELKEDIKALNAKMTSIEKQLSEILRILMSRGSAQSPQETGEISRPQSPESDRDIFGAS
Test: TEVC recording, imipramine inhibition, D39G/R84G double mutant
Conditions: D39G/R84G mutant EAG1 channel, +50 mV
experimental.endpoint: pIC50
The value called pIC50 is obtained by taking minus log10 of the concentration in mol/L.

Prompt: Recorded pIC50 of CN(C)CCCN1c2ccccc2CCc2ccccc21 [imipramine] , please.
Response: 3.85

====

Molecular target: D39G mutant EAG1 channels (Mus musculus, UniProt Q60603, D39G)
Sequence (Q60603 whole entry D39G): as the sequence (Q60603 whole entry D39G/R84G) above, with G84R counted along it
Test: TEVC recording, imipramine inhibition, D39G mutant
Conditions: D39G mutant EAG1 channel, +50 mV
experimental.endpoint: IC50 (µM)
Entry rule: numbers only, all in µM.

Prompt: Recorded IC50 of CN(C)CCCN1c2ccccc2CCc2ccccc21 , please.
Response: 79.6

====

Target: Y71G mutant EAG1 channels (Mus musculus, UniProt Q60603, Y71G)
Sequence (Q60603 whole entry Y71G): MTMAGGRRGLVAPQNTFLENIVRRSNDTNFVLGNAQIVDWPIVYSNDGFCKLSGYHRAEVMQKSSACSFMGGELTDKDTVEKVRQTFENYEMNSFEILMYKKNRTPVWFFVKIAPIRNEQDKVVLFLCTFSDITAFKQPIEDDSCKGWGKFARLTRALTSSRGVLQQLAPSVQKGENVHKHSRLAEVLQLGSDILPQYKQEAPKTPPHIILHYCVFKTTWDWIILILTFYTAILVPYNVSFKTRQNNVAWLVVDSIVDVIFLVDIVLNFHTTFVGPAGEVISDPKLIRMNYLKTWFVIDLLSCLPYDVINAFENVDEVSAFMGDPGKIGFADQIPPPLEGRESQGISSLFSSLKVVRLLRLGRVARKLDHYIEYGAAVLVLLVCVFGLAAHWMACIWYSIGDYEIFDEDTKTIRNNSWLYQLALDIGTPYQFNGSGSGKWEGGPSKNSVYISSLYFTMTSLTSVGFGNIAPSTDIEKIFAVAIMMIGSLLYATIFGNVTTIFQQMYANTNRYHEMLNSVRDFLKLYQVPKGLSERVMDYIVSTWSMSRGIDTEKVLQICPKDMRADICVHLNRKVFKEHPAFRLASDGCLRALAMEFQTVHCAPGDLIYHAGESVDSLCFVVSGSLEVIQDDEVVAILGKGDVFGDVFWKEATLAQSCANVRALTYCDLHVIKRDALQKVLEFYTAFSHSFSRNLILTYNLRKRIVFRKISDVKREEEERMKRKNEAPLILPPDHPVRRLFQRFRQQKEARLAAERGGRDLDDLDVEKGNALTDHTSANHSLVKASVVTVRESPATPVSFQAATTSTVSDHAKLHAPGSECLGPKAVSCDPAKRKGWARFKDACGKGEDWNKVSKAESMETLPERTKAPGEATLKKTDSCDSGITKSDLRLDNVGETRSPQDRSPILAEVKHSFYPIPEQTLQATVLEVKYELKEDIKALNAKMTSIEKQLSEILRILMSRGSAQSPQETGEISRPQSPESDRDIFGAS
Assay: TEVC recording, imipramine inhibition, Y71G mutant
Conditions: Y71G mutant EAG1 channel, +50 mV
experimental.endpoint: IC50 (µM)
Entry rule: numbers only, all in µM.

Prompt: Recorded IC50 of CN(C)CCCN1c2ccccc2CCc2ccccc21 , please.
Response: 26.7

====

Target: V83G mutant EAG1 channels (Mus musculus, UniProt Q60603, V83G)
Sequence (Q60603 whole entry V83G): as the sequence (Q60603 whole entry D39G/R84G) above, with G39D, V83G, G84R counted along it
Test: TEVC recording, imipramine inhibition, V83G mutant
Details: V83G mutant EAG1 channel, +50 mV
experimental.endpoint: IC50
Note to self: number, then unit, no commentary.

Prompt: Recorded IC50 of CN(C)CCCN1c2ccccc2CCc2ccccc21 [imipramine] , please.
Response: 44.3 µM

====

Target: R84G mutant EAG1 channels (Mus musculus, UniProt Q60603, R84G)
Sequence (Q60603 whole entry R84G): as the sequence (Q60603 whole entry D39G/R84G) above, with G39D counted along it
Experiment: TEVC recording, imipramine inhibition, R84G mutant
Details: R84G mutant EAG1 channel, +50 mV
experimental.endpoint: pIC50
The value called pIC50 is obtained by taking minus log10 of the concentration in mol/L.

Prompt: Recorded pIC50 of CN(C)CCCN1c2ccccc2CCc2ccccc21 , please.
Response: 4.03

====

Target: Y71E mutant EAG1 channels (Mus musculus, UniProt Q60603, Y71E)
Sequence (Q60603 whole entry Y71E): as the sequence (Q60603 whole entry D39G/R84G) above, with G39D, Y71E, G84R counted along it
Assay: TEVC recording, imipramine inhibition, Y71E mutant
Settings: Y71E mutant EAG1 channel, +50 mV
experimental.endpoint: pIC50
The value called pIC50 is obtained by taking minus log10 of the concentration in mol/L.

Prompt: Recorded pIC50 of CN(C)CCCN1c2ccccc2CCc2ccccc21 [imipramine] , please.
Response: 4.55
